System: COR L88 complex tumor spheroid viability
Assay: Anticancer human tumor COR L88 cell line growth inhibition;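 further: compound exposure lasted 7 days before viability readout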;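 on viability, T/C: percent of DMSO vehicle-treated spheroids = 100%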
Details: second compound 0.0949 µM; first compound 0.3 µM; stronger effect = lower value
measure: viability, T/C (%)
The figure you give is taken to be in %; do not add the unit.

Form field: viability, T/C recorded for CNCc1ccc(-c2cc(-c3nc(-c4ccc(S(=O)(=O)C(C)C)cc4)cnc3N)on2)cc1 + CC[C@@]1(O)C(=O)OCc2c1cc1n(c2=O)Cc2cc3c(CN(C)C)c(O)ccc3nc2-1 with COR L88 complex tumor spheroid viability (enter value)
16.2

Form field: viability, T/C recorded for Cc1sc2c(c1C)C(c1ccc(Cl)cc1)=NC(CC(=O)Nc1ccc(O)cc1)c1nnc(C)n1-2 (centres undefined) + CC[C@@]1(O)C(=O)OCc2c1cc1n(c2=O)Cc2cc3c(CN(C)C)c(O)ccc3nc2-1 with COR L88 complex tumor spheroid viability (enter value)
31.2

Form field: viability, T/C recorded for O=C(c1cc(Cc2n[nH]c(=O)c3ccccc23)ccc1F)N1CCN(C(=O)C2CC2)CC1 + CC[C@@]1(O)C(=O)OCc2c1cc1n(c2=O)Cc2cc3c(CN(C)C)c(O)ccc3nc2-1 with COR L88 complex tumor spheroid viability (enter value)
44

Form field: viability, T/C recorded for Cn1ncnc1[C@H]1c2n[nH]c(=O)c3cc(F)cc(c23)N[C@@H]1c1ccc(F)cc1 + CC[C@@]1(O)C(=O)OCc2c1cc1n(c2=O)Cc2cc3c(CN(C)C)c(O)ccc3nc2-1 with COR L88 complex tumor spheroid viability (enter value)
34.9

====

Test system: COR L88 complex tumor spheroid viability
Assay: Anticancer human tumor COR L88 cell line growth inhibition;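 further: compound exposure lasted 7 days before viability readout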;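 on viability, T/C: percent of DMSO vehicle-treated spheroids = 100%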
Settings: second compound 0.003 µM; first compound 0.3 µM; stronger effect = lower value
Procedure: Multicellular complex tumor spheroid response to DNA repair inhibitors in combination with DNA-damaging drugs This study explores the anticancer activities of DNA-damaging drugs and inhibitors of DNA damage repair, both as single agents and in combinations. […] Twenty-six patient-derived or established malignant cell lines were evaluated representing sarcoma, melanoma, small cell lung cancer (SCLC), non-small cell lung cancer (NSCLC), as well as bladder, ovarian and pancreatic cancers. […]
measure: viability, T/C (%)
The figure you give is taken to be in %; do not add the unit.

Would you kindly share the measured viability, T/C for O=C(c1cc(Cc2n[nH]c(=O)c3ccccc23)ccc1F)N1CCN(C(=O)C2CC2)CC1 + COc1cc2c(cc1O)CCNC21CSC2c3c(OC(C)=O)c(C)c4c(c3C(COC1=O)N1C(O)C3Cc5cc(C)c(OC)c(O)c5C(C21)N3C)OCO4 ?
1.05

Would you kindly share the measured viability, T/C for Cn1ncnc1[C@H]1c2n[nH]c(=O)c3cc(F)cc(c23)N[C@@H]1c1ccc(F)cc1 + CC[C@@]1(O)C(=O)OCc2c1cc1n(c2=O)Cc2cc3c(CN(C)C)c(O)ccc3nc2-1 ?
42.4

Would you kindly share the measured viability, T/C for O=C(c1cc(Cc2n[nH]c(=O)c3ccccc23)ccc1F)N1CCN(C(=O)C2CC2)CC1 + CC[C@@]1(O)C(=O)OCc2c1cc1n(c2=O)Cc2cc3c(CN(C)C)c(O)ccc3nc2-1 ?
85.6

====

Test system: COR L88 complex tumor spheroid viability
Experiment: Anticancer human tumor COR L88 cell line growth inhibition;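 further: compound exposure lasted 7 days before viability readout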;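 on viability, T/C: percent of DMSO vehicle-treated spheroids = 100%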
Details: second compound 10 µM; first compound 0.0316 µM; stronger effect = lower value
For each entry below, report its viability, T/C value.
The figure you give is taken to be in %; do not add the unit.

Would you kindly share the measured viability, T/C for CC1COCCN1c1cc(-c2ccnn2C)c2ccnc(-c3ccn[nH]3)c2n1 (stereo unspecified) + Cn1nnc2c(C(N)=O)ncn2c1=O ?
46.1

Would you kindly share the measured viability, T/C for COc1cc(C)[nH]c(=O)c1CN1CCc2c(Cl)cc(C(OC)C3COC3)c(Cl)c2C1=O (stereo unspecified) + Cn1nnc2c(C(N)=O)ncn2c1=O ?
62.7

Would you kindly share the measured viability, T/C for [2H]c1nc(C)nc([2H])c1-c1cc(NC[C@@H](C)c2cccc3c(C(=O)NC)ccnc23)ncn1 + Cn1nnc2c(C(N)=O)ncn2c1=O ?
92.2

Would you kindly share the measured viability, T/C for Cc1cc(C)c(CNC(=O)c2cc(-c3ccc(CN4CCOCC4)cc3)cc3c2cnn3C2CCCC2)c(=O)[nH]1 + Cn1nnc2c(C(N)=O)ncn2c1=O ?
90.7

Would you kindly share the measured viability, T/C for CC(C)n1c(=O)n(C)c2cnc3cc(F)c(-c4ccc(OCCCN5CCCCC5)nc4)cc3c21 + Cn1nnc2c(C(N)=O)ncn2c1=O ?
96.2

Would you kindly share the measured viability, T/C for COc1ccc([C@@H](O)c2cc(-c3ncnc4cc(N5CCOCC5)ccc34)c(F)cc2Cl)nn1 + Cn1nnc2c(C(N)=O)ncn2c1=O ?
87

====

Tested on: COR L88 complex tumor spheroid viability
Experiment: Anticancer human tumor COR L88 cell line growth inhibition;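 further: compound exposure lasted 7 days before viability readout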;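 on viability, T/C: percent of DMSO vehicle-treated spheroids = 100%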
Settings: second compound 10 µM; first compound 3 µM; stronger effect = lower value
For each entry below, report its viability, T/C value.

Would you kindly share the measured viability, T/C for CNCc1ccc(-c2cc(-c3nc(-c4ccc(S(=O)(=O)C(C)C)cc4)cnc3N)on2)cc1 + Cn1nnc2c(C(N)=O)ncn2c1=O ?
10.8%

Would you kindly share the measured viability, T/C for O=C(c1cc(Cc2n[nH]c(=O)c3ccccc23)ccc1F)N1CCN(C(=O)C2CC2)CC1 + Cn1nnc2c(C(N)=O)ncn2c1=O ?
64.2%

Would you kindly share the measured viability, T/C for Cn1ncnc1[C@H]1c2n[nH]c(=O)c3cc(F)cc(c23)N[C@@H]1c1ccc(F)cc1 + Cn1nnc2c(C(N)=O)ncn2c1=O ?
36.3%

Would you kindly share the measured viability, T/C for Cc1sc2c(c1C)C(c1ccc(Cl)cc1)=NC(CC(=O)Nc1ccc(O)cc1)c1nnc(C)n1-2 (centres undefined) + Cn1nnc2c(C(N)=O)ncn2c1=O ?
18.8%

====

System: COR L88 complex tumor spheroid viability
Experiment: Anticancer human tumor COR L88 cell line growth inhibition;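 further: compound exposure lasted 7 days before viability readout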
Details: curve of first compound; second compound 0.0949 µM
measure: pIC50
Please note pIC50 is a logarithmic value: minus log10 of concentration in mol/L. Answer with that number alone.

Form field: pIC50 recorded for [2H]c1nc(C)nc([2H])c1-c1cc(NC[C@@H](C)c2cccc3c(C(=O)NC)ccnc23)ncn1 + CC[C@@]1(O)C(=O)OCc2c1cc1n(c2=O)Cc2cc3c(CN(C)C)c(O)ccc3nc2-1 with COR L88 complex tumor spheroid viability (enter value)
5.81

Form field: pIC50 recorded for Cc1cc(C)c(CNC(=O)c2cc(-c3ccc(CN4CCOCC4)cc3)cc3c2cnn3C2CCCC2)c(=O)[nH]1 + CC[C@@]1(O)C(=O)OCc2c1cc1n(c2=O)Cc2cc3c(CN(C)C)c(O)ccc3nc2-1 with COR L88 complex tumor spheroid viability (enter value)
7.36

Form field: pIC50 recorded for COc1ccc([C@@H](O)c2cc(-c3ncnc4cc(N5CCOCC5)ccc34)c(F)cc2Cl)nn1 + CC[C@@]1(O)C(=O)OCc2c1cc1n(c2=O)Cc2cc3c(CN(C)C)c(O)ccc3nc2-1 with COR L88 complex tumor spheroid viability (enter value)
6.91

Form field: pIC50 recorded for CNCc1ccc(-c2cc(-c3nc(-c4ccc(S(=O)(=O)C(C)C)cc4)cnc3N)on2)cc1 + CC[C@@]1(O)C(=O)OCc2c1cc1n(c2=O)Cc2cc3c(CN(C)C)c(O)ccc3nc2-1 with COR L88 complex tumor spheroid viability (enter value)
7.65

Form field: pIC50 recorded for Cc1sc2c(c1C)C(c1ccc(Cl)cc1)=NC(CC(=O)Nc1ccc(O)cc1)c1nnc(C)n1-2 (stereo not given) + CC[C@@]1(O)C(=O)OCc2c1cc1n(c2=O)Cc2cc3c(CN(C)C)c(O)ccc3nc2-1 with COR L88 complex tumor spheroid viability (enter value)
6.73

====

Tested on: COR L88 complex tumor spheroid viability
Experiment: Anticancer human tumor COR L88 cell line growth inhibition;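 further: compound exposure lasted 7 days before viability readout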;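 on viability, T/C: percent of DMSO vehicle-treated spheroids = 100%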
Conditions: second compound 0.0949 µM; first compound 0.1 µM; stronger effect = lower value
For each entry below, report its viability, T/C value.
The figure you give is taken to be in %; do not add the unit.

Would you kindly share the measured viability, T/C for Cc1cc(C)c(CNC(=O)c2cc(-c3ccc(CN4CCOCC4)cc3)cc3c2cnn3C2CCCC2)c(=O)[nH]1 + CC[C@@]1(O)C(=O)OCc2c1cc1n(c2=O)Cc2cc3c(CN(C)C)c(O)ccc3nc2-1 ?
48.2

Would you kindly share the measured viability, T/C for CC1COCCN1c1cc(-c2ccnn2C)c2ccnc(-c3ccn[nH]3)c2n1 (stereo unspecified) + CC[C@@]1(O)C(=O)OCc2c1cc1n(c2=O)Cc2cc3c(CN(C)C)c(O)ccc3nc2-1 ?
12.2

Would you kindly share the measured viability, T/C for [2H]c1nc(C)nc([2H])c1-c1cc(NC[C@@H](C)c2cccc3c(C(=O)NC)ccnc23)ncn1 + CC[C@@]1(O)C(=O)OCc2c1cc1n(c2=O)Cc2cc3c(CN(C)C)c(O)ccc3nc2-1 ?
59.8

Would you kindly share the measured viability, T/C for CC(C)n1c(=O)n(C)c2cnc3cc(F)c(-c4ccc(OCCCN5CCCCC5)nc4)cc3c21 + CC[C@@]1(O)C(=O)OCc2c1cc1n(c2=O)Cc2cc3c(CN(C)C)c(O)ccc3nc2-1 ?
36.4

Would you kindly share the measured viability, T/C for COc1ccc([C@@H](O)c2cc(-c3ncnc4cc(N5CCOCC5)ccc34)c(F)cc2Cl)nn1 + CC[C@@]1(O)C(=O)OCc2c1cc1n(c2=O)Cc2cc3c(CN(C)C)c(O)ccc3nc2-1 ?
53.2

Would you kindly share the measured viability, T/C for COc1cc(C)[nH]c(=O)c1CN1CCc2c(Cl)cc(C(OC)C3COC3)c(Cl)c2C1=O (stereo unspecified) + CC[C@@]1(O)C(=O)OCc2c1cc1n(c2=O)Cc2cc3c(CN(C)C)c(O)ccc3nc2-1 ?
43.8
